Data provenance: ChEMBL document CHEMBL1201862

Consider the following compounds; for each one, report its GI50.
- Tested on: SF-539
- Experiment description: NCI tumour cell line growth inhibition, 48 h
Calls of active or inactive are those of the source. Cut-off read from the data, not from the text of the source: active = GI50 up to about 1.1 µM and inactive = higher.

// query GI50 value for entry `CCN(CC)CCNc1ccc2nnn3c4ccc(OC(C)=O)cc4c(=O)c1c23` 1.67 µM (inactive)

// query GI50 value for entry `CCOC(=O)c1ccc(/N=N\c2ccc(N(CCC#N)CCC#N)cc2C)cc1` 72.9 µM (inactive)

// query GI50 value for entry `CC1(C)COC(c2ccc(C(=O)c3ccc(Cl)cc3)cc2)=N1` > 100 µM (inactive)

// query GI50 value for entry N[C@H]1CCCC[C@@H]1N1C(=O)c2ccccc2C1(O)c1ccc(Cl)cc1 (some centres not stated) 10.4 µM (inactive)

// query GI50 value for entry C=CC1(NS(=O)(=O)c2ccc(C)cc2)CCC(C(C)(C)C)CC1 (configuration not stated) 64 µM (inactive)

// query GI50 value for entry `O=c1oc2ccccc2cc1-c1ccc([N+](=O)[O-])cc1` 17.9 µM (inactive)

// query GI50 value for entry `CC1(C)OC[C@@H]([C@@]2(COC(c3ccccc3)(c3ccccc3)c3ccccc3)CC=CC(=O)O2)O1` 37.2 µM (inactive)

// query GI50 value for entry C/C(=N/O)C1CC=C(S(=O)(=O)c2ccccc2)C1 (configuration not stated) > 100 µM (inactive)

// query GI50 value for entry `Nc1ccccc1Nc1ccccc1C(=O)[O-].Nc1ccccc1Nc1ccccc1C(=O)[O-].[Zn+2]` > 100 µM (inactive)

// query GI50 value for entry `O=C1NNC(=O)c2ccccc2SSc2ccccc2C(=O)NNC(=O)c2ccccc2SSc2ccccc21` 17.3 µM (inactive)

// query GI50 value for entry `Cc1cc(/N=C/c2ccc(C#N)cc2)n(-c2ccccc2)n1` 99.3 µM (inactive)

// query GI50 value for entry `Cc1cc(NC(=O)C(=O)Cc2cnc3ccccc3n2)c(S(=O)(=O)O)cc1Cl` > 100 µM (inactive)

// query GI50 value for entry `O=C(O)c1nnsc1-c1csnn1` > 100 µM (inactive)

// query GI50 value for entry `COc1cc2c[n+](C)c3c4cc(OC)c(OC)cc4c(OCCCCCCCCOc4cc5c6cc(OC)c(OC)cc6c[n+](C)c5c5cc(OC)c(OC)cc45)cc3c2cc1OC` 51.4 µM (inactive)

// query GI50 value for entry `Nc1nc2c(ncn2Cc2ccccc2CO)c(=O)[nH]1` > 100 µM (inactive)

// query GI50 value for entry `COc1ccc(-c2cc3ccccc3oc2=O)cc1OC` > 100 µM (inactive)

// query GI50 value for entry NC(Cc1ncccn1)C(=O)O (configuration not stated) > 100 µM (inactive)

// query GI50 value for entry CCC(O)CCCCCCCCCCCCCCC(=O)O (configuration not stated) > 100 µM (inactive)

// query GI50 value for entry `COc1cc(OC)c(C/C=C/c2ccccc2)cc1O` 16.2 µM (inactive)

// query GI50 value for entry `Nc1nnc2n1C(=O)C(C1(C3=Nc4nnc(N)n4C3=O)Cc3ccccc3C1=O)=N2` > 100 µM (inactive)

// query GI50 value for entry CC1=NN(C(=O)CC(=O)Nc2cccc(C)c2)C(=O)C1/N=N/c1ccc(C(=O)O)cc1 (configuration not stated) > 100 µM (inactive)

// query GI50 value for entry `CC(C)c1cccc2sc(NC(=O)C(=O)CC(=O)c3ccc(F)cc3)nc12` > 100 µM (inactive)
